- Tested on: Pseudomonas aeruginosa
- procedureSummary: Antibacterial activity against Pseudomonas aeruginosa MTCC 741 at 100 ug/disc by paper disc diffusion technique
- Format: functional
- particulars: read-out: IZ
Each record here notes measured zone of inhibition at 100 µg/disc.

// known answers, use as guide
>  <structureNotation>
N#Cc1ccc2nc(NC(=O)CSc3nnc(Cn4cnc5ccccc54)o3)sc2c1

>  <zone of inhibition at 100 µg/disc>
15 mm

$$$$
>  <structureNotation>
O=C(CSc1nnc(Cn2cnc3ccccc32)o1)Nc1nc2ccc(Cl)cc2s1

>  <zone of inhibition at 100 µg/disc>
23 mm

$$$$
>  <structureNotation>
O=C(CSc1nnc(Cn2cnc3ccccc32)o1)Nc1ccc(Cl)cc1

>  <zone of inhibition at 100 µg/disc>
26 mm

$$$$
>  <structureNotation>
O=C(CSc1nnc(Cn2cnc3ccccc32)o1)Nc1nc2ccc([N+](=O)[O-])cc2s1

>  <zone of inhibition at 100 µg/disc>
16 mm

$$$$
>  <structureNotation>
O=C(CSc1nnc(Cn2cnc3ccccc32)o1)Nc1ccc(Br)cc1

>  <zone of inhibition at 100 µg/disc>
26 mm

$$$$

Please give measured zone of inhibition at 100 µg/disc of the following entry: O=C(CSc1nnc(Cn2cnc3ccccc32)o1)Nc1ccc(I)cc1
22 mm

Given the compound Cc1ccc2nc(NC(=O)CSc3nnc(Cn4cnc5ccccc54)o3)sc2c1 , write its reported zone of inhibition at 100 µg/disc.
15 mm

Let me know recorded zone of inhibition at 100 µg/disc for O=C(CSc1nnc(Cn2cnc3ccccc32)o1)Nc1nc2ccc(I)cc2s1 , thanks.
14 mm

Read the entry O=C(CSc1nnc(Cn2cnc3ccccc32)o1)Nc1ccccc1 and write its reported zone of inhibition at 100 µg/disc.
21 mm

Item CCOc1ccc(NC(=O)CSc2nnc(Cn3cnc4ccccc43)o2)cc1 : provide zone of inhibition at 100 µg/disc
16 mm

Entry CCOc1ccc2nc(NC(=O)CSc3nnc(Cn4cnc5ccccc54)o3)sc2c1 needs its zone of inhibition at 100 µg/disc filled in; supply it.
18 mm

Annotate the compound Cc1ccc(NC(=O)CSc2nnc(Cn3cnc4ccccc43)o2)cc1 with its measured zone of inhibition at 100 µg/disc.
14 mm
